experiment: Oral bioavailability in Wistar rat at 10 mg/kg, po; type: ADME, organism-based; conditions: in vivo
MEASURED_QUANTITY: bioavailability (%)

                                   molecule  measured_quantity  result_comparator  observed
0  C[C@@H](CN1CCc2cc(F)ccc21)NC(=O)[C@H](CC1CCCCC1)Nc1nc2cccc(Cl)c2o1    bioavailability                  =        24
1  C[C@@H](CN1CC(C)(C)c2cc(F)ccc21)NC(=O)[C@H](CC1CCCCC1)Nc1nc2cccc(Cl)c2o1    bioavailability                  =        15
2  COc1ccc(NCCNC(=O)[C@H](CC2CCCCC2)Nc2nc3ccccc3o2)cc1    bioavailability                  <         1
3  CCOC(=O)C[C@@H](CN1CCc2cc(F)ccc21)NC(=O)[C@H](CC1CCCCC1)Nc1nc2ccc(Cl)cc2o1    bioavailability                  =        22

----------
assay: Volume of distribution in Wistar rat at 3 mg/kg, iv; assay type: ADME, organism-based; parameters: dose 3 mg/kg, route intravenous; settings: in vivo, read-out: Vss
MEASURED_QUANTITY: Vd (L/kg)

>>> df
                                   molecule  units_symbol  observed
0  O=C(O)C[C@@H](CN1CCc2cc(F)ccc21)NC(=O)[C@H](CC1CCCCC1)Nc1nc2ccc(Cl)cc2o1          L/kg      0.74
1  C[C@@H](CN1CC(C)(C)c2cc(F)ccc21)NC(=O)[C@H](CC1CCCCC1)Nc1nc2cccc(Cl)c2o1          L/kg       0.9
2  C[C@@H](CN1CCc2cc(F)ccc21)NC(=O)[C@H](CC1CCCCC1)Nc1nc2cccc(Cl)c2o1          L/kg      2.57
3  COc1ccc(NCCNC(=O)[C@H](CC2CCCCC2)Nc2nc3ccccc3o2)cc1          L/kg      1.63

----------
experiment: Cmax in Wistar rat at 10 mg/kg, po; assay type: ADME, organism-based; parameters: dose 10 mg/kg, route oral; conditions: in vivo
Reported Cmax values are given for each entry in this list.
MEASURED_QUANTITY: Cmax (nM)

                                   molecule  measured_quantity  observed
0  C[C@@H](CN1CC(C)(C)c2cc(F)ccc21)NC(=O)[C@H](CC1CCCCC1)Nc1nc2cccc(Cl)c2o1               Cmax      1260
1  COc1ccc(NCCNC(=O)[C@H](CC2CCCCC2)Nc2nc3ccccc3o2)cc1               Cmax        12
2  CCOC(=O)C[C@@H](CN1CCc2cc(F)ccc21)NC(=O)[C@H](CC1CCCCC1)Nc1nc2ccc(Cl)cc2o1               Cmax      1100
3  C[C@@H](CN1CCc2cc(F)ccc21)NC(=O)[C@H](CC1CCCCC1)Nc1nc2cccc(Cl)c2o1               Cmax       703
